Test system: NCI-H460 lung
Assay: NCI-60 one-dose screen, 48 h (100 = growth as untreated, 0 = no growth, -100 = all killed)
Conditions: 10 µM unless noted
About 83,000 compounds went through this panel and 20% of them were active in at least one assay; those are over-represented in the sample as a whole.
Could you please mark condition met for values of growth below 60% and condition not met for values at or above it?

Please review the following examples before continuing.
{"Compound": "Cn1c(-c2c(N)n(Cc3cccnc3)c3nc(C#N)c(C#N)nc23)nc2ccccc21", "Discrete label": "condition not met"}
{"Compound": "COc1ccc(NC(=O)CSc2nnc(-c3cc(-c4ccc(S(N)(=O)=O)cc4)nc4ccccc34)n2-c2ccccc2)cc1", "Discrete label": "condition not met"}
{"Compound": "CCSC1=NC2C(N(CC)C(=O)N2CC)N1/N=C/C=C/c1ccccc1[N+](=O)[O-] (stereo not given)", "Discrete label": "condition met"}
{"Compound": "O=c1c2cc(F)ccc2sc2c(NCCN3CCCCC3)nc3ccccc3c12", "Discrete label": "condition met"}
{"Compound": "COc1cc(/C=C/C(=O)c2ccc(Nc3nc(Nc4ccc(F)cc4)nc(Nc4ccc(Cl)cc4)n3)cc2)cc(OC)c1OC", "Discrete label": "condition met"}
{"Compound": "O=C(COc1ccc(/C=C2\\Oc3ccccc3C2=O)cc1)Nc1nc2ccccc2s1", "Discrete label": "condition not met"}
{"Compound": "Cc1ccccc1NC(=O)N/C(N)=N/c1nc(C)c(C)s1", "Discrete label": "condition met"}
{"Compound": "N#CC1=C(NC=O)Oc2c(ccc3ccccc23)C1c1ccccc1 (stereo not given)", "Discrete label": "condition met"}
{"Compound": "CCN(CC)CCN1C(=O)c2c(c(C)c3c(oc4cc(O)ccc43)c2C)C1=O", "Discrete label": "condition met"}
{"Compound": "O=Cc1c[nH]c2ccc(-c3csc4ccccc34)cc12", "Discrete label": "condition met"}

Req: Could you please tell me whether growth recorded for O=[N+]([O-])c1ccc(-c2cc(-c3ccc(Nc4nc(Nc5ccc(Cl)cc5)nc(Nc5ccc(Cl)cc5)n4)cc3)no2)cc1 is less than 60%?
Resp: condition not met

====

Tested on: U251 CNS
Experiment: NCI-60 one-dose screen, 48 h (100 = growth as untreated, 0 = no growth, -100 = all killed)
Settings: 10 µM unless noted
The panel holds about 83,000 compounds, 20% with a hit somewhere; the sample as a whole holds those more often.
Recorded endpoint: growth (%)
Give bare numbers, in %.

Examples from the recorded data:
{"Structure smiles string": "Cc1cc(C)c(-c2c(C)cc(C)cc2CBr)c(CBr)c1", "growth (%)": 73}
{"Structure smiles string": "O=c1oc2ccccc2c(Cl)c1Cl", "growth (%)": 49.1}
{"Structure smiles string": "COc1ccc(N=Nc2ccc(O)c(=O)cc2)cc1", "growth (%)": 12.8}
{"Structure smiles string": "N=C1C(c2nc(-c3ccc(Br)cc3)cs2)=C(O)CN1Cc1cccnc1", "growth (%)": 56.7}
{"Structure smiles string": "CC/C=C\\C/C=C\\C[C@H](O)C/C=C1/C(=O)C=C[C@@H]1C/C=C\\CCCC(=O)O", "growth (%)": -27.9}

Items follow; give growth for each.
1. CCN(CC)c1ccc2nc3c4ccccc4c(=NC(=O)c4ccccc4-c4c5ccc(N(CC)CC)cc5[o+]c5cc(N(CC)CC)ccc45)cc-3oc2c1
2. CC1(C)CC[C@]2(C(=O)N3CCOCC3)CC[C@]3(C)C(=CC[C@@H]4[C@@]5(C)CC[C@H](OC(=O)c6cccnc6)C(C)(C)[C@@H]5CC[C@]43C)[C@@H]2C1
3. O=C(c1ccccc1)c1c(/C=C/c2ccccc2)nc2ccccc2c1/C=C/c1ccc(Br)cc1

Resp:
1. 20.5
2. 53.2
3. 95.9

Req: Retrieve growth measured for COC(=O)c1ccc(CSc2nnc(-c3c(C)nc4ccc(C)cn34)o2)cc1 and print it.
Resp: 99.2
